Cited source: paper PMC9960930

IC50 for assorted compounds
- TESTED TARGET: α-glucosidase from Saccharomyces cerevisiae
- TEST SUMMARY: α-glucosidase inhibition assay (PNPG substrate)
- CONDITION CONTEXT: commercial pure fatty acids; acarbose positive control; three repeats; read-out: IC50 against α-glucosidase
MEASUREMENT TYPE: IC50 (µM)

- CC/C=C\C/C=C\C/C=C\C/C=C\C/C=C\CCCC(=O)O: 541
- CCCCCC/C=C\CCCCCCCC(=O)O: 320
- CCCCC/C=C\C/C=C\C/C=C\C/C=C\CCCC(=O)O: 596
